System: cat flea (Ctenocephalides felis)
Assay: whole plant or invertebrate
Type: in vivo
Settings: Ctenocephalides felis, 8 h, read-out: C. felis Mortality (%) 8 h, 8 h; Laboratory 1 A data
Item-by-item account of mortality at 1.26 µg/cm2, 1.26 µg/cm2
Reply with just the number (in %).

Past entries and their recorded results:
- COMPOUND: "CC/C(=N\\OCc1ccc(Cl)c(Cl)c1)c1cc(Cl)ccc1NS(=O)(=O)C(F)(F)F"
  SYSTEM_NAME: "cat flea (Ctenocephalides felis)"
  UNIT_INFO: "%"
  mortality at 1.26 µg/cm2, 1.26 µg/cm2: 73
- COMPOUND: "C/C(=N\\OCc1ccc(C(F)(F)F)cc1)c1cc(Cl)ccc1NS(=O)(=O)C(F)(F)F"
  SYSTEM_NAME: "cat flea (Ctenocephalides felis)"
  UNIT_INFO: "%"
  mortality at 1.26 µg/cm2, 1.26 µg/cm2: 2
- COMPOUND: "CC/C(=N\\OCc1ccc(C(F)(F)F)cc1)c1cc(Cl)ccc1NS(=O)(=O)C(F)(F)F"
  SYSTEM_NAME: "cat flea (Ctenocephalides felis)"
  UNIT_INFO: "%"
  mortality at 1.26 µg/cm2, 1.26 µg/cm2: 86

Asked: Send back cat flea (Ctenocephalides felis) mortality at 1.26 µg/cm2, 1.26 µg/cm2 of C/C(=N\OCc1ccc(C#N)cc1)c1cc(Cl)ccc1NS(=O)(=O)C(F)(F)F only.
Given back: 1

Asked: Give mortality at 1.26 µg/cm2, 1.26 µg/cm2 for this entry on cat flea (Ctenocephalides felis): CCC/C(=N\OCc1ccc(Cl)cc1Cl)c1cc(Cl)ccc1NS(=O)(=O)C(F)(F)F
Given back: 58

###

In this section we review reported mortality at 1.26 µg/cm2, 1.26 µg/cm2 values for a set of molecules.
Tested on: cat flea (Ctenocephalides felis)
Experiment: whole plant or invertebrate
Assay type: in vivo
Conditions: Ctenocephalides felis, 48 h, read-out: C. felis Mortality (%) 48 h, 48 h; Laboratory 2 B data
Just the number please, in %, no unit attached.

# count of solved cases: 4
- MOLECULE: "CC/C(=N\\OCCC(C)C)c1cc(Cl)ccc1NS(=O)(=O)C(F)(F)F [Compound 247]"
  mortality at 1.26 µg/cm2, 1.26 µg/cm2, %: 100
- MOLECULE: "CCCCO/N=C(\\CC)c1cc(Cl)ccc1NS(=O)(=O)C(F)(F)F [Compound 245]"
  mortality at 1.26 µg/cm2, 1.26 µg/cm2, %: 100
- MOLECULE: "CC/C(=N\\OC(C)C1CC1)c1cc(Cl)ccc1NS(=O)(=O)C(F)(F)F (centres unmarked) [Compound 254]"
  mortality at 1.26 µg/cm2, 1.26 µg/cm2, %: 100
- MOLECULE: "C=CCO/N=C(\\C)c1ccc(C(F)(F)F)cc1NS(=O)(=O)C(F)(F)F [Compound 241]"
  mortality at 1.26 µg/cm2, 1.26 µg/cm2, %: 100

Kindly consider the entry below.
Asked: Find the measured mortality at 1.26 µg/cm2, 1.26 µg/cm2 of CC/C(=N\OC(C)CC)c1cc(Cl)ccc1NS(=O)(=O)C(F)(F)F (centres unmarked) [Compound 243] and report it.
Given back: 100

###

Test system: cat flea (Ctenocephalides felis)
Experiment: whole plant or invertebrate
Format: in vivo
Settings: Ctenocephalides felis, 8 h, read-out: C. felis Mortality (%) 8 h, 8 h; Laboratory 1 A data
Method: b) Ctenocephalides felis Adulticide Assay: C. felis Single Dose Screen Mortality of fleas was the primary endpoint in the assay. Fleas were considered dead if they didn't move or were on their sides and unable to walk or right themselves. […] Adult cat fleas were placed into a sorting chamber, which allowed fleas to jump into the Erlenmeyer flasks. […] Mortality was recorded at 8, 24, 8 and 24, or 24 and 48 hours. […]
READOUT: mortality at 1.26 µg/cm2, 1.26 µg/cm2 (%)
Give the number; % is assumed, so skip it.

- MOLECULE: "CC(C)/C(=N\\OCc1ccc(C(F)(F)F)cc1)c1cc(Cl)ccc1NS(=O)(=O)C(F)(F)F"
  UNIT_INFO: "%"
  ENDPOINT_RESULT: 12
- MOLECULE: "C/C(=N\\Oc1ccccc1)c1cc(Cl)ccc1NS(=O)(=O)C(F)(F)F"
  UNIT_INFO: "%"
  ENDPOINT_RESULT: 6

Asked: Entry CC/C(=N\OCc1ccc(C(C)(C)C)cc1)c1cc(Cl)ccc1NS(=O)(=O)C(F)(F)F needs its mortality at 1.26 µg/cm2, 1.26 µg/cm2 filled in; supply it.
Given back: 8

Asked: Using known records, supply mortality at 1.26 µg/cm2, 1.26 µg/cm2 for CC/C(=N\OCc1cccc(Cl)c1Cl)c1cc(Cl)ccc1NS(=O)(=O)C(F)(F)F
Given back: 13

Asked: Consider the molecule CC/C(=N\OCc1ccc(Br)cc1)c1cc(Cl)ccc1NS(=O)(=O)C(F)(F)F and give its recorded mortality at 1.26 µg/cm2, 1.26 µg/cm2.
Given back: 37
